Biological target: PqsD (Pseudomonas aeruginosa, UniProt P20582)
Construct: His6-tagged PqsD (pET30a-His6-pqsD)
Assay: biochemical
pKd: −log10 of the molar value.
Metric Name: pKd

* c1ccc2c(c1)[nH]c1cnccc12 | < 3.00

###

Biological target: LasR (Pseudomonas aeruginosa)
Construct: His6-tagged LasR (pET30a-His6-LasR), expressed in E. coli BL21 Star (DE3)
Assay: biolayer interferometry (Octet K2)
pKd: −log10 of the molar value.
Metric Name: pKd

- c1ccc2c(c1)[nH]c1cnccc12 [norharmane]: 2.64

###

Molecular target: anthranilyl-CoA synthetase PqsA (Pseudomonas aeruginosa, UniProt Q9I4X3)
Construct: His6-tagged PqsA (pET30a-His6-pqsA), expressed in E. coli BL21 Star (DE3)
Test: biolayer interferometry (Octet K2)
pKd: −log10 of the molar value.
Metric Name: pKd

• c1ccc2c(c1)[nH]c1cnccc12 [norharmane] = 5.60

###

Target: PqsA G279A (Pseudomonas aeruginosa, UniProt Q9I4X3, G279A)
Construct: His6-tagged PqsA G279A (pET30a-His6-pqsA^G279A), expressed in E. coli BL21 Star (DE3)
Experiment: biolayer interferometry (Octet K2)
Metric Name: Kd (mM)

• c1ccc2c(c1)[nH]c1cnccc12 = 1.1

###

Target: PqsR (Pseudomonas aeruginosa)
Construct: His6-tagged PqsR (pET30a-His6-pqsR)
Assay: biochemical
Metric Name: Kd

• c1ccc2c(c1)[nH]c1cnccc12 = > 1 mM
